protocolDescription: MultiTox-Fluor Cytotoxicity Assay - LYMP1-001 - Dead Cells (AID 946);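 also: cells exposed to compound for 16 h; 0% = DMSO and 100% = tetraoctylammonium bromide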
testSettings: LYMP1-001 lymphoblastoid cells, dead-cell protease fluorescence; series mostly up to 92.2 µM
Results filed as inconclusive are left out. Calls of active or inactive are those of the source. Calls follow the shape of the dose curve; as a rule, active = well fitted cell-killing curve with a large enough effect; inconclusive = small, poorly fitted or top-dose-only effect, or effect the other way; inactive = flat fitted curve, though single readings scatter.
parameterMeasured: outcome

{"compound": "Cc1ccc(-c2cc(C(F)(F)F)nn2-c2ccc(S(N)(=O)=O)cc2)cc1", "value": "inactive"}
{"compound": "Cc1cn([C@H]2C[C@H](N=[N+]=[N-])[C@@H](CO)O2)c(=O)[nH]c1=O", "value": "inactive"}
{"compound": "COc1ccc2c(c1)c(CC(=O)O)c(C)n2C(=O)c1ccc(Cl)cc1", "value": "inactive"}
{"compound": "Clc1ccc(C(c2ccccc2Cl)C(Cl)Cl)cc1 (stereo unspecified)", "value": "inactive"}
{"compound": "NCCS(=O)(=O)O", "value": "inactive"}
{"compound": "CCC1(c2ccccc2)C(=O)NCNC1=O", "value": "inactive"}

###

System: CP297
protocolDescription: qHTS profiling for inhibitors of Plasmodium falciparum proliferation (AID 504749); also: nearly all actives have a fitted effect of over 60% in size; also: potency is read from the fitted curve at half-maximal effect
testSettings: P. falciparum in erythrocytes, SYBR Green DNA, 72 h; series mostly up to 28.7 µM
Inconclusive results are not listed. Activity calls are given as the source filed them. Calls follow the shape of the dose curve; as a rule, active = well fitted inhibition curve with a large enough effect; inconclusive = small, poorly fitted or top-dose-only effect; inactive = flat fitted curve, though single readings scatter.

{"compound": "Clc1ccc2nsnc2c1NC1=NCCN1", "Potency": "inactive"}
{"compound": "NC(=O)OCC(COC(N)=O)c1ccccc1", "Potency": "inactive"}
{"compound": "CC[C@@]1(O)C(=O)OCc2c1cc1n(c2=O)Cc2cc3c(CN(C)C)c(O)ccc3nc2-1", "Potency": "7.57 µM (active)"}
{"compound": "Cn1c(=O)c2[nH]cnc2n(C)c1=O", "Potency": "inactive"}
{"compound": "CCOC(=O)c1ncn2c1CN(C)C(=O)c1cc(F)ccc1-2", "Potency": "inactive"}
{"compound": "NCCCCCC(=O)O", "Potency": "inactive"}
{"compound": "CC(C)NCC(O)c1ccc(O)c(O)c1 (stereo not drawn)", "Potency": "inactive"}
{"compound": "NS(=O)(=O)c1cc2c(cc1Cl)NCNS2(=O)=O", "Potency": "inactive"}
{"compound": "O=C(Nc1ccc([N+](=O)[O-])cc1Cl)c1cc(Cl)ccc1O", "Potency": "8.49 µM (active)"}
{"compound": "O=C(c1ccc(OCCN2CCCCC2)cc1)c1c(-c2ccc(O)cc2)sc2cc(O)ccc12", "Potency": "12 µM (active)"}
{"compound": "CS(=O)(=O)Nc1ccc([N+](=O)[O-])cc1Oc1ccccc1", "Potency": "inactive"}
{"compound": "Cc1cc(C(C)(C)C)cc(C)c1CC1=NCCN1", "Potency": "inactive"}
{"compound": "CN1CCC(=C2c3ccccc3C=Cc3ccccc32)CC1", "Potency": "inactive"}

###

protocolDescription: High-throughput drug toxicity screening in the BPDCN cell line Gen2.2 (AID 1224824);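 also: cells exposed to compounds for 48 h before reading; 100% = DMSO and 0% = bortezomib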
testSettings: Gen2.2 BPDCN cells; at 45.8 µM (top of the series) unless noted
Listed below: cell viability, % of control (lower = more cytotoxic) values for each entry.
parameterMeasured: cell viability, % of control (lower = more cytotoxic) (%)

{"molecule": "COc1ccccc1OCCNCC(O)COc1cccc2[nH]c3ccccc3c12 (centres undefined)", "unitOfMeasurement": "%", "value": 167}
{"molecule": "OCCN(CCO)c1nc(N2CCCCC2)c2nc(N(CCO)CCO)nc(N3CCCCC3)c2n1", "unitOfMeasurement": "%", "value": 130}
{"molecule": "CN(C)C(=N)N=C(N)N", "unitOfMeasurement": "%", "value": 165}
{"molecule": "CCCCc1oc2ccccc2c1C(=O)c1cc(I)c(OCCN(CC)CC)c(I)c1", "unitOfMeasurement": "%", "value": 84.7}
{"molecule": "COc1cc2c(c(OC)c1OC)-c1ccc(OC)c(=O)cc1[C@@H](NC(C)=O)CC2", "unitOfMeasurement": "%", "value": 10.1}
{"molecule": "COc1ccc(C2CNC(=O)C2)cc1OC1CCCC1 (centres undefined)", "unitOfMeasurement": "%", "value": 170}
{"molecule": "CC(C)(C)C(=O)Oc1ccc(S(=O)(=O)Nc2ccccc2C(=O)NCC(=O)O)cc1", "unitOfMeasurement": "%", "value": 103}
{"molecule": "CN(Cc1cnc2nc(N)nc(N)c2n1)c1ccc(C(=O)N[C@@H](CCC(=O)O)C(=O)O)cc1", "unitOfMeasurement": "%", "value": 70}
{"molecule": "O=C(Nc1ccc([N+](=O)[O-])cc1Cl)c1cc(Cl)ccc1O", "unitOfMeasurement": "%", "value": 10.1}
{"molecule": "CC(C)C(=O)Nc1ccc([N+](=O)[O-])c(C(F)(F)F)c1", "unitOfMeasurement": "%", "value": 58}
{"molecule": "COc1ccccc1N1CCN(CC(O)COc2cccc3ccccc23)CC1 (centres undefined)", "unitOfMeasurement": "%", "value": 156}
{"molecule": "CC(C(=O)O)c1cccc(C(=O)c2ccccc2)c1 (centres undefined)", "unitOfMeasurement": "%", "value": 152}
{"molecule": "CC(=O)OCC(CCn1cnc2cnc(N)nc21)COC(C)=O", "unitOfMeasurement": "%", "value": 153}
{"molecule": "Nc1nc2c(ncn2COC(CO)CO)c(=O)[nH]1", "unitOfMeasurement": "%", "value": 5.03}
{"molecule": "Clc1ccccc1C(c1ccccc1)(c1ccccc1)n1ccnc1", "unitOfMeasurement": "%", "value": 52.9}
{"molecule": "COc1cc2nc(N(C)CCCNC(=O)C3CCCO3)nc(N)c2cc1OC (centres undefined)", "unitOfMeasurement": "%", "value": 230}
{"molecule": "CN(C)CCCN1c2ccccc2CCc2ccc(Cl)cc21", "unitOfMeasurement": "%", "value": 29.4}
{"molecule": "CCOC(=O)c1ncn2c1CN(C)C(=O)c1cc(F)ccc1-2", "unitOfMeasurement": "%", "value": 100}
{"molecule": "O=c1c(-c2ccc(O)cc2)coc2cc(O)cc(O)c12", "unitOfMeasurement": "%", "value": 55.3}
{"molecule": "O=c1[nH]cc(F)c(=O)[nH]1", "unitOfMeasurement": "%", "value": 118}
{"molecule": "OCCN1CCN(CCCN2c3ccccc3Sc3ccc(C(F)(F)F)cc32)CC1", "unitOfMeasurement": "%", "value": 85.8}
{"molecule": "Cn1c(=O)c2c(ncn2C)n(C)c1=O", "unitOfMeasurement": "%", "value": 150}
{"molecule": "COc1ccc2c(c1)c(CC(=O)O)c(C)n2C(=O)c1ccc(Cl)cc1", "unitOfMeasurement": "%", "value": 127}
{"molecule": "Clc1ccc(C(c2ccccc2Cl)C(Cl)Cl)cc1 (centres undefined)", "unitOfMeasurement": "%", "value": 22.5}
